Reference source for all entries: ChEMBL document CHEMBL3399966

Reported pKi values are given for each entry in this list.
- tested.on: Receptor-type tyrosine-protein kinase FLT3 (Homo sapiens, UniProt P36888)
- Sequence (P36888 whole entry): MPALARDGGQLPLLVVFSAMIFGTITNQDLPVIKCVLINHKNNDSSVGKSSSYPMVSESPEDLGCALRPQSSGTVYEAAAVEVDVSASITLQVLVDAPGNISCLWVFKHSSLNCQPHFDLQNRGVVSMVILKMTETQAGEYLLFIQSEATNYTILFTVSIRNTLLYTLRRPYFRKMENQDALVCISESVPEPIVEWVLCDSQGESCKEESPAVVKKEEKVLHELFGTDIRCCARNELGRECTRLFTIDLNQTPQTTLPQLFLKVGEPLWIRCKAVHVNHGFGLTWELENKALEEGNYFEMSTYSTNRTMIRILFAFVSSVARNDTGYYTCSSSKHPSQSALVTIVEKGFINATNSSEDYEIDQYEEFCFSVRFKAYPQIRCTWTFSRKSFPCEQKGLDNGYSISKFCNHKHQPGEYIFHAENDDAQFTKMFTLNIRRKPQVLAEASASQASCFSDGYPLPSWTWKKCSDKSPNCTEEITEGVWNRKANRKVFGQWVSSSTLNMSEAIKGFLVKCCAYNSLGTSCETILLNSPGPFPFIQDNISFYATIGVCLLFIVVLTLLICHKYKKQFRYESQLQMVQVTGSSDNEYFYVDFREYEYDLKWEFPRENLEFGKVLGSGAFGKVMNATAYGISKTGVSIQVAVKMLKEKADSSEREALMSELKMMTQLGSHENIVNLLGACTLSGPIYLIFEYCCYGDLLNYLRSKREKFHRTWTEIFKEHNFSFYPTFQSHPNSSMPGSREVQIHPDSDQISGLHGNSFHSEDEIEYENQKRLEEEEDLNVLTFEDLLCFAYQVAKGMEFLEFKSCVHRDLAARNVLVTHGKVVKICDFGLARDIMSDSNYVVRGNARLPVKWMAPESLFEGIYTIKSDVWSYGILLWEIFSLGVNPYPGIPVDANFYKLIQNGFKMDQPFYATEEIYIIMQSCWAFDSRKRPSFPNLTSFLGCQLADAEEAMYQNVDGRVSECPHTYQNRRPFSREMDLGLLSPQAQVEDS
pKi: −log10 of the molar value.

The examples below pair each entry with its known result.
O=P(O)(O)CC[C@H]1C2CCC(CC2)[C@@H]1Nc1nc(-c2c[nH]c3ncc(F)cc23)ncc1F (mixture of isomers) | < 5.40
O=C(O)[C@H]1C2CCC(CC2)[C@@H]1Nc1nc(-c2c[nH]c3ncc(F)cc23)ncc1F | < 5.40
O=c1nc([C@H]2C3CCC(CC3)[C@@H]2Nc2nc(-c3c[nH]c4ncc(F)cc34)ncc2F)[nH]o1 (mixture of isomers) | < 5.40
Oc1cc([C@H]2C3CCC(CC3)[C@@H]2Nc2nc(-c3c[nH]c4ncc(F)cc34)ncc2F)on1 (mixture of isomers) | < 5.40

Please turn your attention to the following entry.
Given the entry Fc1cnc2[nH]cc(-c3ncc(F)c(N[C@H]4C5CCC(CC5)[C@@H]4c4nnn[nH]4)n3)c2c1 (mixture of isomers) , what pKi was observed with Receptor-type tyrosine-protein kinase FLT3 (Homo sapiens, UniProt P36888)? < 5.40

====

The molecules below have reported Ki for Proto-oncogene tyrosine-protein kinase Src (Homo sapiens).

The examples below pair each entry with its known result.
NS(=O)(=O)[C@H]1C2CCC(CC2)[C@@H]1Nc1nc(-c2c[nH]c3ncc(F)cc23)ncc1F (mixture of isomers) | 3.1 µM
Cc1nnc([C@H]2C3CCC(CC3)[C@@H]2Nc2nc(-c3c[nH]c4ncc(F)cc34)ncc2F)o1 (mixture of isomers) | > 4 µM
Oc1cc([C@H]2C3CCC(CC3)[C@@H]2Nc2nc(-c3c[nH]c4ncc(F)cc34)ncc2F)on1 (mixture of isomers) | > 4 µM

Value lookup for Ki; key = CC(=O)NS(=O)(=O)[C@H]1C2CCC(CC2)[C@@H]1Nc1nc(-c2c[nH]c3ncc(F)cc23)ncc1F (mixture of isomers) > 4 µM

Request: Oc1cc([C@H]2C3CCC(CC3)[C@@H]2Nc2nc(-c3c[nH]c4ncc(F)cc34)ncc2F)[nH]n1 (mixture of isomers) > 4 µM

====

Reported Ki values are given for each entry in this list.
- tested.on: Glycogen synthase kinase-3 (Homo sapiens, UniProt P49840+P49841)
- protocol.notes: Inhibition of GSK3 (unknown origin)
- Type: protein assay
Enter your answer as a number in nM; do not include the unit.

Given the entry O=C(O)[C@H]1C2CCC(CC2)[C@@H]1Nc1nc(-c2c[nH]c3ncc(F)cc23)ncc1F [PIMODIVIR] , what Ki was observed with Glycogen synthase kinase-3 (Homo sapiens, UniProt P49840+P49841)? 1600

Request: CC(=O)NS(=O)(=O)[C@H]1C2CCC(CC2)[C@@H]1Nc1nc(-c2c[nH]c3ncc(F)cc23)ncc1F (mixture of isomers) 310

Request: OCC(O)[C@H]1C2CCC(CC2)[C@@H]1Nc1nc(-c2c[nH]c3ncc(F)cc23)ncc1F (mixture of isomers) 78

Request: NS(=O)(=O)[C@H]1C2CCC(CC2)[C@@H]1Nc1nc(-c2c[nH]c3ncc(F)cc23)ncc1F (mixture of isomers) 85

Request: CC(O)[C@H]1C2CCC(CC2)[C@@H]1Nc1nc(-c2c[nH]c3ncc(F)cc23)ncc1F (mixture of isomers) 66

====

Reported pKi values are given for each entry in this list.
- tested.on: cAMP-dependent protein kinase catalytic subunit alpha (Homo sapiens)
- protocol.notes: Inhibition of PKAa (unknown origin)
pKi: −log10 of the molar value.

The examples below pair each entry with its known result.
Cc1nnc([C@H]2C3CCC(CC3)[C@@H]2Nc2nc(-c3c[nH]c4ncc(F)cc34)ncc2F)o1 (mixture of isomers) | < 5.40
O=c1nc([C@H]2C3CCC(CC3)[C@@H]2Nc2nc(-c3c[nH]c4ncc(F)cc34)ncc2F)[nH]o1 (mixture of isomers) | < 5.40

Value lookup for pKi; key = Fc1cnc2[nH]cc(-c3ncc(F)c(N[C@H]4C5CCC(CC5)[C@@H]4c4nnn[nH]4)n3)c2c1 (mixture of isomers) < 5.40

Request: Cc1noc([C@H]2C3CCC(CC3)[C@@H]2Nc2nc(-c3c[nH]c4ncc(F)cc34)ncc2F)n1 (mixture of isomers) 5.96

Request: Oc1cc([C@H]2C3CCC(CC3)[C@@H]2Nc2nc(-c3c[nH]c4ncc(F)cc34)ncc2F)no1 (mixture of isomers) 6.23

Request: Oc1cc([C@H]2C3CCC(CC3)[C@@H]2Nc2nc(-c3c[nH]c4ncc(F)cc34)ncc2F)[nH]n1 (mixture of isomers) < 5.40

Request: CC(O)[C@H]1C2CCC(CC2)[C@@H]1Nc1nc(-c2c[nH]c3ncc(F)cc23)ncc1F (mixture of isomers) < 5.40
